Data origin: ChEMBL document CHEMBL1135299

target: Endothelin-converting enzyme 1 (Rattus norvegicus)
Sequence (P42893 whole entry): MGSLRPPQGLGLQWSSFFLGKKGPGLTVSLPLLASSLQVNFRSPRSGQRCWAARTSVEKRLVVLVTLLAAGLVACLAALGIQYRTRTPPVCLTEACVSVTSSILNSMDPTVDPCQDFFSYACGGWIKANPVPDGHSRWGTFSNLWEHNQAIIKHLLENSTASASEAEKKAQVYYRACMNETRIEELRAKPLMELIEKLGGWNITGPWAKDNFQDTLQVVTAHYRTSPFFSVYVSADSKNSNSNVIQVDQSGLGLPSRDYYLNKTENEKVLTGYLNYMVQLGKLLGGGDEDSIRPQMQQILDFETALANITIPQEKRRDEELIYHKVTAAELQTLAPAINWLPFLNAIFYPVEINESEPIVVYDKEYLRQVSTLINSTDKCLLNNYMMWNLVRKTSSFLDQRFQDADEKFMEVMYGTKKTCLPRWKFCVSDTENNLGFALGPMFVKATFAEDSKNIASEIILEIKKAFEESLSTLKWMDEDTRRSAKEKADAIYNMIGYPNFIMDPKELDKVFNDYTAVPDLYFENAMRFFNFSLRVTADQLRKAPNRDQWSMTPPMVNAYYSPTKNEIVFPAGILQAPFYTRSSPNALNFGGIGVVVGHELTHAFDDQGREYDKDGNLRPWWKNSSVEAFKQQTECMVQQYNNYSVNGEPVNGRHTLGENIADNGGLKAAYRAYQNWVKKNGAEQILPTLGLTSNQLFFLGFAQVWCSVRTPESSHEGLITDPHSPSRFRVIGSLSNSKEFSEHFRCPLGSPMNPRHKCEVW
Could you mark each record class 1 if its IC50 falls strictly under 3 µM, and class 0 if it equals or exceeds it?

Consider the worked cases shown below.
Smiles structure	Category label
CCCc1ccc(N/N=C(\N=N\c2nnnn2-c2ccccc2)c2ccccc2)cc1	class 1
Cc1nn(-c2ccccc2)c(NC(=O)NS(=O)(=O)c2ccc(Cl)cc2)c1C#N	class 1
Cc1ccc(N/N=C(\N=N\c2nnnn2-c2ccccc2)c2ccccc2)cc1	class 0
CC(C)c1ccc(N/N=C(\N=N\c2nnnn2-c2ccccc2)c2ccccc2)cc1	class 0
c1ccc(C(=N/Nc2ccc(C3CCCCC3)cc2)/N=N/c2nnnn2-c2ccccc2)cc1	class 0

Below: the item to evaluate.
Lab note: IC50 threshold 3 µM. Does this compound come in strictly under it? `c1ccc(N/N=C(\N=N\c2nnnn2-c2ccccc2)c2ccccc2)cc1`
class 0
